compounds and their reported pIC50
tested on: LNCaP prostate cancer cells; assay: MTT cell viability assay, LNCaP cells; type: cell-based; details: Homo sapiens, LNCaP; MTT, 72 h, 10% FBS-supplemented medium; read-out: IC50 in inhibiting the viability of LNCaP prostate cancer cells
For clarity, pIC50 is expressed as the negative log10 of concentration in mol/L.

- COMPOUND: "CC1(COc2ccc(CC3SC(=O)NC3=O)cc2)CCCCC1 (stereo not drawn)"
  pIC50: 4.15
- COMPOUND: "C=CCOc1c(C)c(C)c2c(c1C)CCC(C)(COc1ccc(/C=C3\\SC(=O)NC3=O)cc1Br)O2 (stereo not drawn)"
  pIC50: 4.92

Pending compound:
Requested field: pIC50. Item: O=CC[C@@H](O)[C@H](O)[C@H](O)CO 2.26

----------
test system: LNCaP prostate cancer cells; test: MTT cell viability assay, LNCaP cells; format: cell-based; conditions: Homo sapiens, LNCaP; MTT, 72 h, 10% FBS-supplemented medium; read-out: IC50 in inhibiting the viability of LNCaP prostate cancer cells
Reported IC50 values follow for various compounds
The figure you give is taken to be in µM; do not add the unit.

- COMPOUND: "CC1(CN2C(=O)S/C(=C\\c3ccc(O)c(C(F)(F)F)c3)C2=O)CCCCC1"
  IC50 (µM): 5.7
- COMPOUND: "Cc1c(C)c2c(c(C)c1O)CCC(C)(COc1ccc(CC3SC(=O)NC3=O)cc1)O2 (stereo not drawn)"
  IC50 (µM): 70

Query IC50 on LNCaP prostate cancer cells for Oc1ccc(C=Cc2cc(O)cc(O)c2)cc1 110
